# Tested Target: Luciferin 4-monooxygenase (Photinus pyralis)
# Assay Summary: inhibition of purified Photinus pyralis luciferase – biochemical, luminescence, purified enzyme, 2006 set, primary screen (AID 1141);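 also: cell-free assay with purified firefly luciferase at 100 ng per well in PBS; test concentration not given here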
# Measurement Context: purified firefly luciferase, SteadyGlo luminescence, 30 min; higher = more signal, called active from +8 up or from −8 down
Measured Endpoint: z-score
Form rule: numeric answer, no unit written next to it.

For the compound shown here, COc1ccc(C(=O)Nc2cccc(CN3C(=O)[C@@]4(O[C@@H](CC(=O)N5CCC[C@H]5CO)[C@H]([Si](C)(C)c5ccc(OC)cc5)[C@H]4C)c4ccccc43)c2)cc1 , give the reported z-score.
-0.599

Again, but for COC(=O)C(CC#Cc1ccc2c(c1)[C@]1(C(=O)N2)[C@H](c2ccc(OCCO)cc2)N2[C@H](c3ccccc3)[C@H](c3ccccc3)OC(=O)[C@H]2[C@@H]1C(=O)N1CCCCCCC1)C(=O)OC
-0.596

What would you report for COc1ccc([Si](C)(C)[C@@H]2[C@@H](CC(=O)N3Cc4ccccc4C[C@H]3CO)O[C@]3(C(=O)N(Cc4cccc(N5CCOC5=O)c4)c4ccccc43)[C@H]2C)cc1 ?
0.274

// repeat for O=C1[C@@H]2[C@@H](CC(COc3ccccc3)=C([C@H](O)CCc3ccccc3)[C@@H]2CO)C(=O)N1Cc1ccccc1 and report
-0.172

Please answer likewise for C=C(CCCC)C(=O)CC[C@@H](OC(=O)c1ccccc1-c1ccccc1C(=O)O)c1ccccc1OCCO
-1.31

---
Which z-score value belongs to COc1ccc([Si](C)(C)[C@@H]2[C@@H](CC(=O)N(CCO)Cc3ccccc3)O[C@]3(C(=O)N(Cc4ccc(N5C(=O)c6cccc7cccc5c67)cc4)c4ccccc43)[C@H]2C)cc1 ?
-0.389
